Provenance of the data: PubChem BioAssay (NCI)

system: IGROV1 ovarian; assay: NCI tumour cell line growth inhibition, 48 h; in the data active means GI50 below about 0.43 µM; inactive means the rest
Pick one and only one: 1 (yes) for active, 0 (no) for inactive

CC1=C[C@H]2c3c(c(O)c(O)c4oc5c(C)cccc5c(=O)c34)[C@H](c3cc(O)c(O)c4oc5c(C)cccc5c(=O)c34)[C@H]2C(C)(C)C1: 0 (no)
O=[N+]([O-])c1ccc(Br)c([N+](=O)[O-])c1: 0 (no)
COc1cc2nc(-c3cnc(N(C)C)nc3)nc(NC3CCN(Cc4ccccc4)CC3)c2cc1OC: 0 (no)
CC1=C(C(=O)Nc2ccc(F)c(Cl)c2)C(c2ccccc2Cl)NC(=S)N1 (stereo unspecified): 0 (no)
CC(C)=CCC[C@H](C)[C@@H]1CC[C@]2(C)C3CC[C@]4(OC4(C)C)C(CCCO)[C@]3(C)CC[C@@]12C (stereo partly specified): 0 (no)

Next molecule, please.
Query string: Could you please tell me the result logged for COc1ccc2c(c1)C(=O)/C(=C/c1cccc(OCC(=O)Nc3nc4c(s3)CCCC4)c1)O2 in this assay?
Result string: 1 (yes)
